- System: Candida albicans
- experimental-details: Antifungal activity against Candida albicans after 48 hrs by broth dilution technique
- Assay type: functional
readout-type: MIC (µg/mL)
Give a bare numeral; the unit µg/mL is implied.

[
  {
    "compound": "CCCCCCCCCCCCCCCC(=O)Nc1ccccc1O",
    "unit-symbol": "µg/mL",
    "MIC": 50
  }
]

So what's the measured MIC for this one? CCCCC/C=C\CC[C@H](O)CCCCCCCC(=O)N(C(=O)NC1CCCCC1)C1CCCCC1 12.5

Next record, please: CCCCCCCCCCCCCCCCCC(=O)Nc1ccccc1O 12.5

Next record, please: CCCCCCCCCCCCCCCC(=O)N(C(=O)NC1CCCCC1)C1CCCCC1 25

Next record, please: C=CCCCCCCCCC(=O)N(C(=O)NC1CCCCC1)C1CCCCC1 50

Next record, please: COC1=CC(=O)C[C@@H](C)[C@]12Oc1c(Cl)c(OC)cc(OC)c1C2=O [GRISEOFULVIN] 6.25

Next record, please: CCCCCCCC/C=C\CCCCCCCC(=O)Nc1ccccc1O 50

---

- Tested on: Candida albicans
- experimental-details: Antifungal activity against Candida albicans after 48 hrs by broth dilution technique
- Format: functional
The following compounds are shown together with reported MFC values.
Give a bare numeral; the unit µg/mL is implied.

Use the examples below as a reference point.
[
  {
    "smiles-str": "CCCCCC[C@@H](O)C/C=C\\CCCCCCCC(=O)N(C(=O)NC1CCCCC1)C1CCCCC1",
    "MFC (µg/mL)": 50
  },
  {
    "smiles-str": "C=CCCCCCCCCC(=O)N(C(=O)NC1CCCCC1)C1CCCCC1",
    "MFC (µg/mL)": 100
  },
  {
    "smiles-str": "CCCCCCCCCCCCCCCCCC(=O)N(C(=O)NC1CCCCC1)C1CCCCC1",
    "MFC (µg/mL)": 50
  },
  {
    "smiles-str": "CCCCCCCCCCCCCCCCCC(=O)Nc1ccccc1O",
    "MFC (µg/mL)": 25
  }
]

Give Candida albicans MFC for CCCCCCCC/C=C\CCCCCCCC(=O)N(C(=O)NC1CCCCC1)C1CCCCC1 100

Next record, please: CCCCCCCC/C=C\CCCCCCCC(=O)Nc1ccccc1O 50

Next record, please: CCCCCCCCCCCCCCCC(=O)N(C(=O)NC1CCCCC1)C1CCCCC1 50

---

The following compounds are shown together with reported MIC values.
- Tested on: Talaromyces marneffei
- experimental-details: Antifungal activity against Penicillium marneffei after 48 hrs by broth dilution technique
- Format: functional
Give a bare numeral; the unit µg/mL is implied.

Use the examples below as a reference point.
[
  {
    "smiles-str": "CCCCC/C=C\\CC[C@H](O)CCCCCCCC(=O)N(C(=O)NC1CCCCC1)C1CCCCC1",
    "measured-on": "Talaromyces marneffei",
    "observed-measurement": 12.5
  },
  {
    "smiles-str": "CCCCC/C=C\\CC[C@H](O)CCCCCCCC(=O)Nc1ccccc1O",
    "measured-on": "Talaromyces marneffei",
    "observed-measurement": 25
  },
  {
    "smiles-str": "CCCCCCCCCCCCCCCC(=O)N(C(=O)NC1CCCCC1)C1CCCCC1",
    "measured-on": "Talaromyces marneffei",
    "observed-measurement": 50
  },
  {
    "smiles-str": "CCCCCC[C@@H](O)C/C=C\\CCCCCCCC(=O)Nc1ccccc1O",
    "measured-on": "Talaromyces marneffei",
    "observed-measurement": 50
  }
]

So what's the measured MIC for this one? COC1=CC(=O)C[C@@H](C)[C@]12Oc1c(Cl)c(OC)cc(OC)c1C2=O 6.25

Next record, please: CCCCCCCCCCCCCCCC(=O)Nc1ccccc1O 50

Next record, please: CCCCCCCC/C=C\CCCCCCCC(=O)Nc1ccccc1O 50

Next record, please: CCCCCCCCCCCCCCCCCC(=O)Nc1ccccc1O 50

Next record, please: CCCCCCCCCCCCCCCCCC(=O)N(C(=O)NC1CCCCC1)C1CCCCC1 50
